- Assay Remarks: chemical genetic growth profiling, strain panel (AID 1159580);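 further: tested at 20 µM; growth read once vehicle control cultures reached saturation at 30 °C; 1 = growth at the plate median or of vehicle wells; lower values mean less growth of the strain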
- Assay Conditions: S. cerevisiae deletion strains, growth OD, locus YLR371W, strain rom2
Among all 5,500 compounds or so, about 2,000 (36%) were called active. Inconclusive results (about 18%) are left out. No stated cut-off is given here; in the data, active means normalized growth mostly below about 0.91 (no sharp cut-off); inconclusive means no clear call, values can overlap the other calls; inactive means mostly above about 0.92. Some of the results follow.
Labels: true (1) = active, false (0) = inactive

Molecule: O=C(/C=C/c1ccccc1)c1c(O)cc(O)cc1O
Class: false (0)

Molecule: O[C@H]1[C@H](O)[C@@H](O)C2OC[C@H]1O2
Class: false (0)

Molecule: CC(C)[C@@H]1CC[C@@H](C)C[C@H]1OC(=O)c1ccccc1
Class: false (0)

Molecule: COc1cc2c(cc1OC)C(C)NCC2 (stereo not drawn)
Class: false (0)

Molecule: N[C@@H](C(=O)N[C@@H]1C(=O)N2C(C(=O)O)=C(Cl)CS[C@H]12)c1ccccc1
Class: false (0)

Molecule: CNC(=O)Oc1cccc2c1OC(C)(C)C2
Class: false (0)

Molecule: OC[C@H]1O[C@@H](Oc2ccc(O)cc2)[C@H](O)[C@@H](O)[C@@H]1O
Class: false (0)

Molecule: Cc1ccc(O)c(C(CCN(C(C)C)C(C)C)c2ccccc2)c1 (stereo not drawn)
Class: false (0)

Molecule: O=c1c(O)c(-c2ccccc2)oc2ccccc12
Class: false (0)

Molecule: O=c1c(O)c(-c2ccccc2)oc2ccc3occc3c12
Class: true (1)

Molecule: CC1(C)CC23C(=O)CCC(O)C2(C)CCC13 (stereo not drawn)
Class: false (0)

Molecule: COC(=O)C[C@H]1C(C)(C)[C@@H](OC(C)=O)[C@@H]2CC3=C4CC(=O)O[C@@H](c5ccoc5)[C@]4(C)CCC3[C@@]1(C)C2=O (stereo partly drawn)
Class: false (0)

Molecule: C=C[C@H]1CN2CC[C@H]1C[C@H]2[C@H](O)c1ccnc2ccccc12
Class: false (0)

Molecule: CN1CCC[C@H]1c1cccnc1
Class: false (0)

Molecule: O=C(O)c1cc(=O)c2ccccc2[nH]1
Class: false (0)

Molecule: COc1cc(O)c2c(c1)C(=O)c1cc(C)cc(O)c1C2=O
Class: false (0)

Molecule: CN(C)CCC[C@@]1(c2ccc(F)cc2)OCc2cc(C#N)ccc21
Class: false (0)

Molecule: CC(=O)Oc1c(C)c(C)c2c(c1C)CCC(C)(CCCC(C)CCCC(C)CCCC(C)C)O2 (stereo not drawn)
Class: false (0)

Molecule: O=C(/C=C/c1ccccc1)c1ccc(O[C@@H]2O[C@H](CO)[C@@H](O)[C@H](O)[C@H]2O)cc1O
Class: true (1)

Molecule: CC(C)Cn1c(=O)n(C)c(=O)c2[nH]cnc21
Class: false (0)

Molecule: COc1cc2cccc(OC)c(=O)c2c(OC)c1OC
Class: false (0)

Molecule: O=C(/C=C/c1ccc(O)cc1)c1ccc(O)cc1O
Class: true (1)

Molecule: CC1=C(C(=O)O)N2C(=O)[C@@H](NC(=O)[C@@H](N)c3ccc(O)cc3)[C@H]2SC1
Class: false (0)
